- Tested on: Klebsiella pneumoniae
- method: Inhibition of beta-lactamase in Klebsiella pneumoniae CL 6569 assessed as drug concentration required to reduce imipenem MIC to 4 ug/ml
parameter-measured: INH (µM)

> print(dat)
                                 mol.smiles      system.under.test  parameter.measured  value.unit  measurement.qualifier  observed.measurement
1  O=C(O)c1ccc(NC(=O)[C@@H]2CC[C@@H]3CN2C(=O)N3OS(=O)(=O)O)cc1  Klebsiella pneumoniae                 INH          µM                      >                   100
2  O=C(OC1CCNCC1)[C@@H]1CC[C@@H]2CN1C(=O)N2OS(=O)(=O)O  Klebsiella pneumoniae                 INH          µM                      =                  6.25
3  CN1CCC(NC(=O)[C@@H]2CC[C@@H]3CN2C(=O)N3OS(=O)(=O)O)CC1  Klebsiella pneumoniae                 INH          µM                      =                  12.5
4  O=C(NCC1CCNCC1)[C@@H]1CC[C@@H]2CN1C(=O)N2OS(=O)(=O)O  Klebsiella pneumoniae                 INH          µM                      =                  6.25
